Entries and their Ki
SYSTEM_NAME: GCN2 kinase (Homo sapiens)
Sequence (Q9P2K8 whole entry): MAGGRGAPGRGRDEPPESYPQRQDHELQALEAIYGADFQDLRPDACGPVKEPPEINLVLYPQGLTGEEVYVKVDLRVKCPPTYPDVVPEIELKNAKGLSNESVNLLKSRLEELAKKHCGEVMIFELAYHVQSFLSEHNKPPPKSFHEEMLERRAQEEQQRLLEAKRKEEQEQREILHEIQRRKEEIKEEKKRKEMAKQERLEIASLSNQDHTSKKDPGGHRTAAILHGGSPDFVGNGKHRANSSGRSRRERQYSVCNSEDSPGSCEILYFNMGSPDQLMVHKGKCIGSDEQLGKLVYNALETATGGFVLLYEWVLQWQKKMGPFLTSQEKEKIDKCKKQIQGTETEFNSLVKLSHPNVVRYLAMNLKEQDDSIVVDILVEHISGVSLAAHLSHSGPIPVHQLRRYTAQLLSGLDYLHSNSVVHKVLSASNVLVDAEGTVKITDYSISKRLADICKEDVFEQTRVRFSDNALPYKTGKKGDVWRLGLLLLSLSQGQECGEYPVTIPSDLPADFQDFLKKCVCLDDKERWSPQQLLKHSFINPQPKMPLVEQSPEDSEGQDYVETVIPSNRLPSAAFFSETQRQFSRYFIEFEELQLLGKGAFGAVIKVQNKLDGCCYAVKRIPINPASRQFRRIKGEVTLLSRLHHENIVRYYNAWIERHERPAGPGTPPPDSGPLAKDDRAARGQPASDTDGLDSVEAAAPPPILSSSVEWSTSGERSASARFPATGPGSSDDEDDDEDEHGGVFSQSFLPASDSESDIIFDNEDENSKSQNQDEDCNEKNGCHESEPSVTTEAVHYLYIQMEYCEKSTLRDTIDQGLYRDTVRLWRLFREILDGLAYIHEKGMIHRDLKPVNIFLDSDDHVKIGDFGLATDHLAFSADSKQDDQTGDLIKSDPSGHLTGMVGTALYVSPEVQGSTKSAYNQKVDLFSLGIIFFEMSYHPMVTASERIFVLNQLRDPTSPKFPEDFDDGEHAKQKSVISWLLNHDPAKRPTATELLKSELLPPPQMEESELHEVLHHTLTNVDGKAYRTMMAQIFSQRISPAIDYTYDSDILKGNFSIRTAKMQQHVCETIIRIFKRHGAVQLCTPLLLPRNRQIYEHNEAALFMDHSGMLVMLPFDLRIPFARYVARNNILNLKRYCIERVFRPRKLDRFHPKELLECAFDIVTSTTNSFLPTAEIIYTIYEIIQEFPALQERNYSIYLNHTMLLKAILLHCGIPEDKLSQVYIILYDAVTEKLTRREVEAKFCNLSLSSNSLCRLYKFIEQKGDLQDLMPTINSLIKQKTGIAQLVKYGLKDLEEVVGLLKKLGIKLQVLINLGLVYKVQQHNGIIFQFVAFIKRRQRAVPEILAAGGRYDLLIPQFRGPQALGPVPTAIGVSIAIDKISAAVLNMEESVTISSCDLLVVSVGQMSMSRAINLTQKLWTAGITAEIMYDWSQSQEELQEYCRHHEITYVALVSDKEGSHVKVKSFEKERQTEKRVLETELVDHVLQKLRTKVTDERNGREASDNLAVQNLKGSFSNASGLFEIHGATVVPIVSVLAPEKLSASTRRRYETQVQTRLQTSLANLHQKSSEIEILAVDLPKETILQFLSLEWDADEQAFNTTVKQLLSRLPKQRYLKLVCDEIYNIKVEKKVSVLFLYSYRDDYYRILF
PROTOCOL_TEXT: GCN2 enzyme inhibition assay (Transcreener ADP2 fluorescence polarization)
Assay type: biochemical
CONDITION_SUMMARY: Enzyme activity for compounds of Formula IV; Ki(app), 280 μM ATP, 25° C.

COMPOUND: Cc1[nH]ncc1C1CCCN(c2ccnc(-c3cnc4cnc(C(F)(F)F)cn34)n2)C1 (stereo not shown) [IV-452]
Ki: < 10 nM
//
COMPOUND: C[C@H]1CN(c2ccnc(-c3cnc4cnc(C(F)(F)F)cn34)n2)C[C@@H](c2nc(C3CC3)no2)O1
Ki: 100 to 1000 nM
//
COMPOUND: O=C(N[C@H]1CCCN(c2ccnc(-c3cnc4cnc(C(F)(F)F)cn34)n2)C1)c1ccc(F)cc1F
Ki: > 1000 nM

Prompt: Which measured Ki belongs to Cc1n[nH]c(C)c1C1CCCN(c2ccnc(-c3cnc4cnc(C(F)(F)F)cn34)n2)C1 (single isomer, unassigned) [IV-477] , tested on GCN2 kinase (Homo sapiens)?
Completion: 10 to 100 nM

----------
SYSTEM_NAME: GCN2 kinase (Homo sapiens)
PROTOCOL_TEXT: GCN2 enzyme inhibition assay (Transcreener ADP2 fluorescence polarization)
Format: biochemical
CONDITION_SUMMARY: Enzyme activity for compounds of Formula IV; Ki(app), 280 μM ATP, 25° C.
Listing of entries alongside the reported Ki.

# count of solved cases: 5
MOLECULE: Brc1cn2c(-c3nccc(N4CCCC(c5cn[nH]c5)C4)n3)cnc2cn1 (single isomer, unassigned) [IV-361]
RECORDED_METRIC: Ki
RESULT: < 10 nM
--
MOLECULE: COc1cnc(N2CCN(C(C)=O)CC2)nc1-c1cnc2cnc(C(N)=O)cn12 [IV-701]
RECORDED_METRIC: Ki
RESULT: 100 to 1000 nM
--
MOLECULE: CC1C(c2cn[nH]c2)NCCN1c1ccnc(-c2cnc3cnc(Br)cn23)n1 (single isomer, unassigned) [IV-413]
RECORDED_METRIC: Ki
RESULT: 10 to 100 nM
--
MOLECULE: OC1CCCN(c2ccnc(-c3cnc4cnc(C(F)(F)F)cn34)n2)CC1 (centres unmarked) [IV-447]
RECORDED_METRIC: Ki
RESULT: 100 to 1000 nM
--
MOLECULE: CC(C)(C)C1OCN2CCN(c3ccnc(-c4cnc5cnc(C(F)(F)F)cn45)n3)CC12 (centres unmarked) [IV-506]
RECORDED_METRIC: Ki
RESULT: 100 to 1000 nM

Prompt: Would you kindly share the measured Ki for OC1CCN(c2ccnc(-c3cnc4cnc(C(F)(F)F)cn34)n2)CC1c1cn[nH]c1 (single isomer, unassigned) [IV-622] ?
Completion: < 10 nM

Prompt: Please give the result for FC(F)(F)c1cn2c(-c3nccc(N4CC(c5cn[nH]c5)N5CCC[C@H]5C4)n3)cnc2cn1 (some centres unmarked) [IV-679] too.
Completion: < 10 nM

Prompt: Another molecule to check: NCC(=O)Nc1cccc(-c2ccnc(-c3cnc4cnc(C(F)F)cn34)n2)c1 [IV-167]
Completion: 100 to 1000 nM

Prompt: # iterate: C[C@@H]1CN(c2ccnc(-c3cnc4cnc(Br)cn34)n2)C[C@H](c2cn[nH]c2)N1 (racemic) [IV-344]
Completion: 10 to 100 nM

Prompt: Entry CC(C)c1nc(C2=CCCN(c3ccnc(-c4cnc5cnc(Br)cn45)n3)C2)c[nH]1 [IV-385] please
Completion: 10 to 100 nM

Prompt: Would you mind doing FC(F)(F)c1cn2c(-c3nccc(N4CCCC(c5c[nH]cn5)C4)n3)cnc2cn1 (centres unmarked) [IV-325] as well?
Completion: 10 to 100 nM

Prompt: Next molecule up: CC1(c2n[nH]cc2C2CCN(c3ccnc(-c4cnc5cnc(C(F)(F)F)cn45)n3)C2)CC1 (centres unmarked) [IV-630]
Completion: 10 to 100 nM

Prompt: One more molecule: FC(F)(F)c1cn2c(-c3nccc(N4CCCC5(CCOCC5)C4)n3)cnc2cn1 [IV-505]
Completion: 100 to 1000 nM

Prompt: Quick one: O=C1CN(c2ccnc(-c3cnc4cnc(C(F)(F)F)cn34)n2)CC2CCCCN12 (centres unmarked) [IV-571]
Completion: 100 to 1000 nM

Prompt: Record: NC(=O)c1cn2c(-c3cccc(N4CCN5C(=O)CCC[C@H]5C4)n3)cnc2cn1 [IV-228]
Completion: 10 to 100 nM

Prompt: Try this molecule next: NC(=O)C1CN(c2ccnc(-c3cnc4cnc(C(F)(F)F)cn34)n2)CC(F)(F)C1 (centres unmarked) [IV-582]
Completion: 10 to 100 nM

Prompt: Follow-up item: NC(=O)c1cn2c(-c3nccc(N4CCCC(N)C4)n3)cnc2cn1 (centres unmarked) [IV-256]
Completion: 100 to 1000 nM

Prompt: Input C[C@H]1[C@@H](c2cn[nH]c2)NCCN1c1ccnc(-c2cnc3cnc(C4CC4)cn23)n1 (racemic) [IV-411]
Completion: 10 to 100 nM

Prompt: Another molecule to check: CC1CNC(c2cn[nH]c2)CN1c1ccnc(-c2cnc3cnc(C(F)(F)F)cn23)n1 (single isomer, unassigned) [IV-333]
Completion: 10 to 100 nM

Prompt: And for NS(=O)(=O)c1ccc(C(=O)N[C@@H]2CCCN(c3ccnc(-c4cnc5cnc(C(F)(F)F)cn45)n3)C2)o1 [IV-710] ?
Completion: 100 to 1000 nM

Prompt: And then CS(=O)(=O)Nc1cccc(-c2ccnc(-c3cnc4cnc(C(F)F)cn34)n2)c1 [IV-147] , what is it?
Completion: 100 to 1000 nM

Prompt: Cool, now Cn1nccc1C1CCCN(c2ccnc(-c3cnc4cnc(C(F)(F)F)cn34)n2)C1 (centres unmarked) [IV-655]
Completion: 100 to 1000 nM

Prompt: Next record, please: C[C@H]1COCCN1c1ccnc(-c2cnc3cnc(C(F)F)cn23)n1 [IV-81]
Completion: 100 to 1000 nM

Prompt: Lookup C[C@@H]1CN(c2ccnc(-c3cnc4cnc(Cl)cn34)n2)C[C@H](c2cn[nH]c2)N1 (racemic) [IV-206]
Completion: 10 to 100 nM

Prompt: Request: CS(=O)(=O)N1CCN(c2cccc(-c3ccnc(-c4cnc5cnc(C(F)F)cn45)n3)n2)CC1 [IV-151]
Completion: 100 to 1000 nM

Prompt: Again, but for CC1CCCCN1c1ccnc(-c2cnc3cnc(C(N)=O)cn23)n1 (centres unmarked) [IV-261]
Completion: 10 to 100 nM

Prompt: And what about the molecule CC(C)(O)C1CC(c2cn[nH]c2)CN(c2ccnc(-c3cnc4cnc(C(F)(F)F)cn34)n2)C1 (single isomer, unassigned) [IV-684] ?
Completion: < 10 nM

Prompt: And for NC(=O)NCC1CCCN(c2ccnc(-c3cnc4cnc(C(F)F)cn34)n2)C1 (centres unmarked) [IV-41] ?
Completion: 100 to 1000 nM

Prompt: Subsequent entry: O=C(N[C@H]1CCCN(c2ccnc(-c3cnc4cnc(C(F)(F)F)cn34)n2)C1)c1ccn(C2CC2)n1 [IV-742]
Completion: > 1000 nM

Prompt: Try the molecule FC(F)c1cn2c(-c3nsc(N4CCOC(c5cn[nH]c5)C4)n3)cnc2cn1 (centres unmarked) [IV-702]
Completion: 100 to 1000 nM

Prompt: Likewise for CNS(=O)(=O)C1CCN(c2ccnc(-c3cnc4cnc(C(N)=O)cn34)n2)CC1 [IV-252] ?
Completion: 100 to 1000 nM

Prompt: Now the same for CC1CN(c2nccc(-c3cnc4cnc(Br)cn34)n2)C(C)C(c2cn[nH]c2)N1 (single isomer, unassigned) [IV-404]
Completion: 100 to 1000 nM
